Overview of recorded EC50 for various compounds
test system: RSV A2 strain; assay: In vitro CPE (CytoPathic Effect) inhibition effect evaluation test, RSV type A; format: cell-based; conditions: human respiratory syncytial virus; inhibitory effect against RSV type A (RSV A2 strain), HEp-2 cells, CPE inhibition; read-out: EC50

Reference set (3 entries):
Compound	Meas Value
CNC(=O)C1CC1c1ccc2c(c1)CCN2c1ncc(C(=O)NC2(C(=O)O)C3CC4CC(C3)CC2C4)c(C(F)(F)F)n1 (racemic)	10 to 100 nM
CC(C)N1CCC(Oc2ccc3c(c2)C2(CCOCC2)CN3c2ncc(C(=O)NC3(C(=O)O)C4CC5CC(C4)CC3C5)c(C(F)(F)F)n2)CC1 (centres unmarked)	< 10 nM
O=C(NC1(C(=O)O)C2CC3CC(C2)CC1C3)c1ccc(-c2cn(C3CCC(F)CC3)c3cc(O[C@H]4CC[C@H](N5CC(F)(F)C5)CC4)ccc23)nc1C(F)(F)F (single isomer, unassigned)	< 10 nM

Would you mind telling me what EC50 value was observed for CC(F)(F)c1nc(-c2cn(C3CCC(F)(F)CC3)c3cc(O[C@H]4CC[C@H](N5CC(F)(F)C5)CC4)ccc23)ncc1C(=O)N[C@]1(C(=O)O)[C@@H]2CC3C[C@H]1C[C@@](F)(C3)C2 ?
< 10 nM

Entry COc1cccc(COc2ccc3c(n2)C2(CCOCC2)CN3c2ncc(C(=O)NC3(C(=O)O)CCCCC3)c(C(F)(F)F)n2)c1 : reported EC50 = ?
< 10 nM
